property_name: pIC50
# pIC50 = -log10(concentration in molar units)

Input line: API: value(readout= pIC50, system= HDAC1 (Homo sapiens, UniProt Q13547), query= CCCNNC(=O)c1ccc(N2CCN(CCCCCCCC(=O)N[C@H](C(=O)N3C[C@H](O)C[C@H]3C(=O)N[C@@H](C)c3ccc(-c4scnc4C)cc3)C(C)(C)C)CC2)cc1 )
Output line: 6.23
